# literature pull: UniProt:P14174 pIC50
Just the number, please; pIC50 means minus log10 of the concentration in mol/L.

Reading of pIC50 for COC(=O)C1CC(c2ccc(OC)c(OC)c2)=NO1 (configuration not stated) with UniProt:P14174: 4.60

Reading of pIC50 for O=C(O)CC(c1ccc(Cl)cc1)(c1ccc(Cl)cc1)c1ccc(Cl)cc1 with UniProt:P14174: 5.09

Reading of pIC50 for CC(C)(C)OC(=O)NCCCCNC(=O)CC1CC(c2ccc(O)cc2)=NO1 (configuration not stated) with UniProt:P14174: 5.07

Reading of pIC50 for O=C(O/N=C/c1ccc(O)cc1)C1CCC1 with UniProt:P14174: 4.96

---

# literature pull: the protein given by its sequence IC50
Target chain: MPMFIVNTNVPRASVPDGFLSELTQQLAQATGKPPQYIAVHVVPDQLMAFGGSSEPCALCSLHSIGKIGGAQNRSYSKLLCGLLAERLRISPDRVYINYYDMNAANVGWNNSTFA
All answers are understood in µM, so give the number only.

Some solved entries appear below for comparison.
[
  {
    "COMPOUND": "CCCCCCS",
    "ENDPOINT_RESULT": 17.4
  },
  {
    "COMPOUND": "O=C(c1cnc(CCCC2CCCCC2)o1)N1CCN(Cc2ccccc2)CC1",
    "ENDPOINT_RESULT": 30
  }
]

# compound O=C(CC1CC(c2ccc(O)cc2)=NO1)NC1CCCCC1 (centres undefined) ; its IC50 = 24

---

Target sequence: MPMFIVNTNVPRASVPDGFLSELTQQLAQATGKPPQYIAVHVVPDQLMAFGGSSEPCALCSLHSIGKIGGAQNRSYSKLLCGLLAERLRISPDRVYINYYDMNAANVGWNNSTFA
# literature pull: the protein given by its sequence log10 IC50
Each number you see is log10 of IC50, and the unit inside the log is µM.

Some solved entries appear below for comparison.
[
  {
    "COMPOUND": "O=C(O/N=C/c1ccc(O)cc1)c1ccccc1",
    "log10 IC50": 0.85
  },
  {
    "COMPOUND": "CN/N=C/c1ccc(O)cc1",
    "log10 IC50": 1.63
  },
  {
    "COMPOUND": "O=C(CC1CC(c2ccc(O)cc2)=NO1)OC1CCCCC1 (stereo not drawn)",
    "log10 IC50": 0.40
  },
  {
    "COMPOUND": "COC(=O)[C@@H](Cc1ccccc1)/N=C/c1ccc(O)cc1",
    "log10 IC50": 1.70
  },
  {
    "COMPOUND": "COC(=O)[C@@H](Cc1ccc(O)cc1)/N=C/c1ccc(O)cc1",
    "log10 IC50": 1.00
  }
]

# compound CC(C)(C)c1ccc(OC(=O)CC2CC(c3ccc(O)cc3)=NO2)cc1 (stereo not drawn) ; its log10 IC50 = 1.00
